Source: patent US20250355001A1

# Tested on: hT40, dGA, dGAE and truncated tau fragments
# assay-procedure: Binding ELISA / epitope mapping of anti-tau scAbs with truncated tau proteins and 13mer peptides
# Set-up: species or system human
# experimental-parameters: residue numbers of SEQ ID NO: 1 (hT40); CDR Tables 1-11
observation-type: Epitope

Some entries whose results are on file:
# molecule, Epitope
measured = [
    ("ME12: sheep-derived anti-tau clone, CDRs in Table 1 (protein, VHCDR1 ME12, NS3D9; VHCDR1 S1D2, S1H6, S2C3; VHCDR1 MC5, MD12; VHCDR1 3aA6, VHCDR1 CE3; VHCDR2 ME12; VHCDR3 ME12; VLCDR1 S1D12, ME12; VLCDR2 ME12; VLCDR3 ME12) CDR 1: SNAVG CDR 2: GCSSDGKCYHNSALKS CDR 3: GFYSIYGYDYSGTIDY CDR 4: SGSSSNVGGGNSVG CDR 5: NTNSRPS CDR 6: VTGDSSTHDDL", "337-355"),
    ("3aH6: N-terminal anti-tau clone, Table 6; SEQ ID NO: 423 (protein, 3aH6 amino acid sequence) QVQLQESGPSLVKPSQTLSLTCTVSGFSLSSNGVGWVRQAPGKVPEWLGDISSVGKKYANPALKSRLSFTRDTSKSQVSLSLSSVTTEDTAVYYCVKCRDGGVTYGYDIDYWGPGLLVTASSEGKSSGASGESKVDDQAVVTQPSSVSGSLGQSVSITCSGSSGNVGYGDYVSWFQQFHGSAPKLLIYGATNLASGVPARFSGSRSGNTATLTISSLHAEDEADYYCASYDSSSGGVFGSGTRLTVLG", "1-49"),
    ("412E6: C-terminal anti-tau clone, Table 5; sequence in b349 (protein) scAb: QVQLQESGPSLVKPSETLSLTCTVSGFSLTNYGVGWVRQAPGKALEWLGNIYSGGSTYYNPALKSRLSITRDTSKSQVSLSLNSVTLEDTAVYYCGRGGVGSVDVWGPGLLVTVSSEGKSSGASGESKVDDQAVLTQPPSVSGSPGQRVSITCSGGRNNIGRGTFVDWYQQLPGSGLKTVIYGTDRRPPGVPDRFSGSKTGNAATLTITSLQAEDEADYWCATYDYSNDMIILGSGTRLTVLG", "412-441"),
]

Now consider the entry below.
Q: Could you share which Epitope value was measured for CE2: anti-tau core clone, Table 10; SEQ ID NO: 366 (protein, CE2/E1B8 amino acid sequence) scFv: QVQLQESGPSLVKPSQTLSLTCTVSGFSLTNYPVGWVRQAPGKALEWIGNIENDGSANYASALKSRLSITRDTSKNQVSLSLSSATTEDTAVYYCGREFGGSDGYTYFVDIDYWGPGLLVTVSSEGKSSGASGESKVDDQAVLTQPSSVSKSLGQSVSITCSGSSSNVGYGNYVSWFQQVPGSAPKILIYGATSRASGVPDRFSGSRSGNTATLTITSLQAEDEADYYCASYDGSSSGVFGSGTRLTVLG ?
A: 319-331
